# assay details: Stability in rat blood plasma, LC–MS/MS
# Format: in vitro ADME
# settings: rat, EDTA-stabilized rat blood plasma; 1000 ng/mL spike, estimated from the graph
measured property: half-life at 1000 ng/mL

compound="O=C(CCCCCCC(=O)NC1C2CC3CC(C2)CC1C3)NO (stereo not shown)" result="1 to 1.17 h"

###

A collection of molecules and their measured pIC50
# study target: HDAC6 (Homo sapiens)
# Construct: purchased Enzo Life Sciences (Enzo Biochem, New York, NY, USA)
# Sequence (Q9UBN7 whole entry): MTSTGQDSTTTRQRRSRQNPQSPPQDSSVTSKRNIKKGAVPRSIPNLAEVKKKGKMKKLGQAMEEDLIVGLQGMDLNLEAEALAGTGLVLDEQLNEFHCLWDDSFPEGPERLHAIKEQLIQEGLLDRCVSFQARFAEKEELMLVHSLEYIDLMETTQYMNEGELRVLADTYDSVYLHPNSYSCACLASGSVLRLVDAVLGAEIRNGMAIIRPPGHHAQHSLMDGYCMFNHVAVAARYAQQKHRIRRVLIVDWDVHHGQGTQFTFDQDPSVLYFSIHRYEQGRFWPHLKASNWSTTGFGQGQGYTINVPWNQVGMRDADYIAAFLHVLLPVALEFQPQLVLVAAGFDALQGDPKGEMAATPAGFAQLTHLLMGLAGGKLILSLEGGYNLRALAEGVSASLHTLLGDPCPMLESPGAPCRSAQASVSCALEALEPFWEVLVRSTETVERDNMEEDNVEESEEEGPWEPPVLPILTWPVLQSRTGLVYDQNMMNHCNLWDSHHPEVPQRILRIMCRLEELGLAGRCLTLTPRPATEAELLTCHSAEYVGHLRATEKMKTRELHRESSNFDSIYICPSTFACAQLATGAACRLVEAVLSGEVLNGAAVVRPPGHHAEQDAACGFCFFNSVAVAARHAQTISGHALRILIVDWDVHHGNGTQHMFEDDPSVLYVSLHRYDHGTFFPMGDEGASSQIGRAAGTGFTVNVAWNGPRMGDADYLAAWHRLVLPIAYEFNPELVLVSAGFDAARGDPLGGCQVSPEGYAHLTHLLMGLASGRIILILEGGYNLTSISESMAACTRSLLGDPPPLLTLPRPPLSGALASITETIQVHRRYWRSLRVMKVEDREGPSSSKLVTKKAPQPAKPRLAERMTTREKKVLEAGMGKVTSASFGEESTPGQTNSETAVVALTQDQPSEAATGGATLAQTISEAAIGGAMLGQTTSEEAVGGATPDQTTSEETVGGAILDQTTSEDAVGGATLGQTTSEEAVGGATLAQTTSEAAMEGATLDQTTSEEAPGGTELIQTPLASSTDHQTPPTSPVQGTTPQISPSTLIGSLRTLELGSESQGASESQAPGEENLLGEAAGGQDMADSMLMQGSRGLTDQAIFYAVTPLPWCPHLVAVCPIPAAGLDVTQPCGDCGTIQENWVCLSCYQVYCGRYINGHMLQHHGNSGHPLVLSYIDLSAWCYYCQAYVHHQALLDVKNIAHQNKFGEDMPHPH
# assay details: HDAC6 enzyme activity, FLUOR DE LYS fluorometric kit
# Assay type: biochemical
# settings: mean ± SEM; read-out: IC50 HDAC6 Inhibitory Activity
pIC50: −log10 of the molar value.
measured property: pIC50

molecule="O=C(CCCCCCCC(=O)NC1C2CC3CC(C2)CC1C3)NO (stereo not drawn)" sign_qualifier== quantitative_result=6.13
molecule=CC1(C)[C@H]2CC[C@](C)(C2)[C@H]1NC(=O)CCCCCCCC(=O)NO sign_qualifier== quantitative_result=5.35
molecule="O=C(CCCCCCC(=O)NC1C2CC3CC(C2)CC1C3)NO (stereo not drawn)" sign_qualifier== quantitative_result=6.02
molecule=CC1(C)[C@@H]2CC[C@@]1(C)[C@H](NC(=O)CCCCCCCC(=O)NO)C2 sign_qualifier== quantitative_result=5.39
molecule=CC1(C)[C@H]2CC[C@](C)(C2)[C@H]1NC(=O)CCCCCCC(=O)NO sign_qualifier== quantitative_result=5.03
molecule="O=C(/C=C/c1ccc(C(=O)NO)cc1)NC1C2CC3CC(C2)CC1C3 (stereo not drawn)" sign_qualifier== quantitative_result=5.19
molecule="CC1(C)C(NC(=O)/C=C/c2ccc(C(=O)NO)cc2)[C@@]2(C)CC[C@H]1C2 (stereo partly drawn)" sign_qualifier=≥ quantitative_result=5.19
molecule=CC1(C)[C@@H]2CCC1(C)[C@H](NC(=O)/C=C/c1ccc(C(=O)NO)cc1)C2 sign_qualifier== quantitative_result=4.74
molecule=CC1(C)[C@@H]2CC[C@@]1(C)[C@H](NC(=O)CCCCCCC(=O)NO)C2 sign_qualifier== quantitative_result=6.16
